Recorded values, source patent US11584737B2.

# target or test system: CDK12/CycK complex (Homo sapiens, UniProt Q9NYV4)
# Sequence (Q9NYV4 whole entry, species assumed): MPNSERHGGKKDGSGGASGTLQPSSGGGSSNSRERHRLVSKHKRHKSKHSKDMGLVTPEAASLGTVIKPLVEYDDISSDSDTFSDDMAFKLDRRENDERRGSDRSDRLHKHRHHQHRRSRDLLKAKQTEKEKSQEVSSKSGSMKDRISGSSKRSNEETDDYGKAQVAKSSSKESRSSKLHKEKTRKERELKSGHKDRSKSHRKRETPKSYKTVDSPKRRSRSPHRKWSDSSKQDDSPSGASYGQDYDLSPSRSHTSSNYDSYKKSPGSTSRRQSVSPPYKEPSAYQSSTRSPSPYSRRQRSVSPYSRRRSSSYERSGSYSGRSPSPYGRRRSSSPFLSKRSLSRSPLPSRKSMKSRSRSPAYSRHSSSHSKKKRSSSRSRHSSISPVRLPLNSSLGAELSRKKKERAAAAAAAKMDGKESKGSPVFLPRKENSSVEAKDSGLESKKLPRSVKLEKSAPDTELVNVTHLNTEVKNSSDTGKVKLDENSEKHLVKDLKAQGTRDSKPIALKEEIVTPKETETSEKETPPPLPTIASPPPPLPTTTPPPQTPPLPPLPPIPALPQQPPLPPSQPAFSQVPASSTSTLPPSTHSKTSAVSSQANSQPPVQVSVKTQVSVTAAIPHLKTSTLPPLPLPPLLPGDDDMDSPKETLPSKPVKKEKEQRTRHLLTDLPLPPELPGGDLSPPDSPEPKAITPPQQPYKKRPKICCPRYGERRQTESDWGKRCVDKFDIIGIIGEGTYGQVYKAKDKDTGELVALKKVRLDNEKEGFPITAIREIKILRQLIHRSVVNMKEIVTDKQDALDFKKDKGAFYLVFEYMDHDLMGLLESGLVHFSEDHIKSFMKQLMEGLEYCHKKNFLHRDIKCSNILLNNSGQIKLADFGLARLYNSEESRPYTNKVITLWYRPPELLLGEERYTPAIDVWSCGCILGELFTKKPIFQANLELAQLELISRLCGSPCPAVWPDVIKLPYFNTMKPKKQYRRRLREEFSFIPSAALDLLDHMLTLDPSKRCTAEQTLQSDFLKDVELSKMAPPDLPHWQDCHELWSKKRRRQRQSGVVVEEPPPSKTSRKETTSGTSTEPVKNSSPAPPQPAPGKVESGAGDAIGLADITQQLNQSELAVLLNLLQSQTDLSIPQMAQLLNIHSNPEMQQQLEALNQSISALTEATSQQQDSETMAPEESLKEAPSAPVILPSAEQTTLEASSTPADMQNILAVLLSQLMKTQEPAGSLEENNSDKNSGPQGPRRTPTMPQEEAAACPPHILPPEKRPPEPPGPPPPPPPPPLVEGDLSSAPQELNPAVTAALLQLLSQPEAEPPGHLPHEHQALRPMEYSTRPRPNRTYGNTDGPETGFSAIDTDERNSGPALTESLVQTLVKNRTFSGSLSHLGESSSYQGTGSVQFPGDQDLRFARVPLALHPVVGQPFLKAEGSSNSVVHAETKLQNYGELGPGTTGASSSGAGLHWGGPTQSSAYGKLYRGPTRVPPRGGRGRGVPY
# Sequence (O75909 whole entry partner, species assumed): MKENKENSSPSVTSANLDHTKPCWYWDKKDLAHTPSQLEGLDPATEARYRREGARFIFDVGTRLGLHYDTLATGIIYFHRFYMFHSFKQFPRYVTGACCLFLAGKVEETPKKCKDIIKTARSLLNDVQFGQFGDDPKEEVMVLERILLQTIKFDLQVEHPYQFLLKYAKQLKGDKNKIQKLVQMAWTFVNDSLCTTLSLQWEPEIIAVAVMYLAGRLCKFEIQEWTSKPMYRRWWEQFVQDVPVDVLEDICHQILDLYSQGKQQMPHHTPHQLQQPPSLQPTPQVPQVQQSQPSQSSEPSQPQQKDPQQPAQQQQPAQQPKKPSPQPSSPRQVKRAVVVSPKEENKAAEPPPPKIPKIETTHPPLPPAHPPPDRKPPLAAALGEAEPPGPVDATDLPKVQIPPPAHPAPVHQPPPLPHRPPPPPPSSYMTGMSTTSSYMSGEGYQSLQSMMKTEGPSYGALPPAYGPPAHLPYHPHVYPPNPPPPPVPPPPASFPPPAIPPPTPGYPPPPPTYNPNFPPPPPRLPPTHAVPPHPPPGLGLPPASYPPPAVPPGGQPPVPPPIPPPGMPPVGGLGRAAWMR
# procedure summary: Measurement of CDK12 inhibitory activity by binding assay (BODIPY-FL labeled AT-7519 high concentration conditions, 1320 nM)
# particulars: inhibitory rate against CDK12 at 1 μM test compound, 1320 nM BODIPY-FL-labeled AT-7519, 8 nM CDK12/CycK
value kind: inhibition at 1 µM (%)

>  <structure>
Cn1cc(-c2cnc(N(C(=O)OCC(F)F)[C@H]3CC[C@H](Nc4ncc(C(F)(F)F)c(-c5cncc(S(C)(=O)=O)c5)n4)CC3)cn2)cn1

>  <target or test system>
CDK12/CycK complex (Homo sapiens, UniProt Q9NYV4)

>  <inhibition at 1 µM / %>
99

$$$$
>  <structure>
COc1ncc(-c2cnc(N(C(=O)N3CC(C)(O)C3)[C@H]3CC[C@H](Nc4ncc(C(F)(F)F)c(-c5n[nH]cc5Cl)n4)CC3)cn2)cn1

>  <target or test system>
CDK12/CycK complex (Homo sapiens, UniProt Q9NYV4)

>  <inhibition at 1 µM / %>
91

$$$$
>  <structure>
COCCOC(=O)N(c1cnc(-c2cnc(OC)nc2)cn1)[C@H]1CC[C@H](Nc2ncc(C(F)(F)F)c(-c3cncc(S(C)(=O)=O)c3)n2)CC1

>  <target or test system>
CDK12/CycK complex (Homo sapiens, UniProt Q9NYV4)

>  <inhibition at 1 µM / %>
91

$$$$
